- Tested on: Escherichia coli ATCC 25922
- PROTOCOL DETAILS: MIC, broth microdilution (CLSI), reference strain
- CONDITION SET: CAMHB
Square brackets hold non-standard residues; d marks the D form. Peptide text beside a SMILES is read from it. * marks the point of attachment. Phe(3-CF3) = N[C@@H](Cc1cccc(C(F)(F)F)c1)C(=O)O; Phe(2-CONH2) = NC(=O)c1ccccc1C[C@H](N)C(=O)O; Pro(trans-4-F) = O=C(O)[C@@H]1C[C@@H](F)CN1; Phe(3-Me) = Cc1cccc(C[C@H](N)C(=O)O)c1; Dab(3S-OH) = NC[C@H](O)[C@H](N)C(=O)O; His(τ-Me) = Cn1cnc(C[C@H](N)C(=O)O)c1; ΔZArg = N=C(N)NCC/C=C(\N)C(=O)O; Lys(Me) = CNCCCC[C@H](N)C(=O)O; dOrn = NCCC[C@@H](N)C(=O)O; Orn = NCCC[C@H](N)C(=O)O; Dab = NCC[C@H](N)C(=O)O; NH(CH2)4NH2 = NCCCCN*
ENDPOINT: Ec: MIC Escherichia coli ATCC 25922

Examples from the recorded data:
C[C@H](NC(=O)[C@@H](NC(=O)[C@@H](N)CCCCN)[C@@H](O)CN)C(=O)NCC(=O)N[C@H](CCCN)C(=O)N1CCC[C@H]1C(=O)N[C@@H](Cc1cccc(C(F)(F)F)c1)C(=O)N[C@@H](CCCCN)C(=O)N/C(=C\CCNC(=N)N)C(=O)O [24.87] (H-K[Dab(3S-OH)]AG[dOrn]P[Phe(3-CF3)]K[ΔZArg]-OH); + (≤32 μg/mL)
N=C(N)NCC/C=C(\NC(=O)[C@H](CCCCN)NC(=O)[C@H](Cc1cnc[nH]1)NC(=O)[C@@H]1CCCN1C(=O)[C@@H](CCCN)NC(=O)CNC(=O)[C@H](CCN)NC(=O)[C@@H](NC(=O)[C@@H](N)CCCCN)[C@@H](O)CN)C(=O)N[C@@H](CCCCN)C(=O)NCCCCN [21.1] (H-K[Dab(3S-OH)][Dab]G[dOrn]PHK[ΔZArg]K-{NH(CH2)4NH2}); ++ (≤8 μg/mL)
N=C(N)NCC/C=C(\NC(=O)[C@H](CCCCN)NC(=O)[C@H](Cc1c[nH]c2ccccc12)NC(=O)[C@@H]1CCCN1C(=O)[C@@H](CCCN)NC(=O)CNC(=O)[C@H](CCN)NC(=O)[C@@H](NC(=O)[C@@H](N)CCCCN)[C@@H](O)CN)C(=O)O [21.12] (H-K[Dab(3S-OH)][Dab]G[dOrn]PWK[ΔZArg]-OH); ++ (≤8 μg/mL)
C[C@H](NC(=O)[C@@H](NC(=O)[C@@H](N)CCCCN)[C@@H](O)CN)C(=O)NCC(=O)N[C@H](CCCN)C(=O)N1CCC[C@H]1C(=O)N[C@@H](Cc1cn(C)cn1)C(=O)N[C@@H](CCCCN)C(=O)N/C(=C\CCNC(=N)N)C(=O)N[C@@H](CCCCN)C(=O)NCCCCN [24.15] (H-K[Dab(3S-OH)]AG[dOrn]P[His(τ-Me)]K[ΔZArg]K-{NH(CH2)4NH2}); ++ (≤8 μg/mL)
CNCCCC[C@H](N)C(=O)N[C@H](C(=O)N[C@@H](C)C(=O)NCC(=O)N[C@H](CCCN)C(=O)N1CCC[C@H]1C(=O)N[C@@H](Cc1cnc[nH]1)C(=O)N[C@@H](CCCCN)C(=O)N/C(=C\CCNC(=N)N)C(=O)O)[C@@H](O)CN [24.149] (H-[Lys(Me)][Dab(3S-OH)]AG[dOrn]PHK[ΔZArg]-OH); + (≤32 μg/mL)

I need Ec: MIC Escherichia coli ATCC 25922 for every entry listed below, if you could help.
1. N=C(N)NCC/C=C(\NC(=O)[C@H](CCCCN)NC(=O)[C@H](Cc1cnc[nH]1)NC(=O)[C@@H]1CCCN1C(=O)[C@@H](CCCN)NC(=O)CNC(=O)[C@H](CCN)NC(=O)[C@H](CCN)NC(=O)[C@@H](N)CCCCN)C(=O)N[C@@H](CCCCN)C(=O)NCCCCN [11.1] (H-K[Dab][Dab]G[dOrn]PHK[ΔZArg]K-{NH(CH2)4NH2})
2. N=C(N)NCC/C=C(\NC(=O)[C@H](CCCCN)NC(=O)[C@H](Cc1cnc[nH]1)NC(=O)[C@@H]1CCCN1C(=O)[C@@H](CCCN)NC(=O)CNC(=O)[C@@H](NC(=O)[C@@H](NC(=O)[C@H](N)CCCCN)[C@@H](O)CN)[C@@H](O)CN)C(=O)N[C@@H](CCCCN)C(=O)NCCCCN [22.6] (H-[dK][Dab(3S-OH)][Dab(3S-OH)]G[dOrn]PHK[ΔZArg]K-{NH(CH2)4NH2})
3. C[C@H](NC(=O)[C@@H](NC(=O)[C@@H](N)CCCCN)[C@@H](O)CN)C(=O)NCC(=O)N[C@H](CCCN)C(=O)N1CCC[C@H]1C(=O)N[C@@H](CC(N)=O)C(=O)N[C@@H](CCCCN)C(=O)N/C(=C\CCNC(=N)N)C(=O)O [24.112] (H-K[Dab(3S-OH)]AG[dOrn]PNK[ΔZArg]-OH)
4. C[C@H](NC(=O)[C@@H](NC(=O)[C@@H](N)CCCCN)[C@@H](O)CN)C(=O)NCC(=O)N[C@H](CCCN)C(=O)N1CCC[C@H]1C(=O)N[C@@H](Cc1ccc(O)cc1)C(=O)N[C@@H](CCCCN)C(=O)N/C(=C\CCNC(=N)N)C(=O)N[C@@H](CCCCN)C(=O)NCCCCN [24.20] (H-K[Dab(3S-OH)]AG[dOrn]PYK[ΔZArg]K-{NH(CH2)4NH2})
5. Cc1cccc(C[C@H](NC(=O)[C@@H]2CCCN2C(=O)[C@@H](CCCN)NC(=O)CNC(=O)[C@H](CCCN)NC(=O)[C@@H](NC(=O)[C@@H](N)CCCCN)[C@@H](O)CN)C(=O)N[C@@H](CCCCN)C(=O)N/C(=C\CCNC(=N)N)C(=O)O)c1 [211.5] (H-K[Dab(3S-OH)][Orn]G[dOrn]P[Phe(3-Me)]K[ΔZArg]-OH)
6. C[C@H](NC(=O)[C@H](CCN)NC(=O)[C@@H](N)CCCCN)C(=O)NCC(=O)N[C@H](CCCN)C(=O)N1C[C@H](F)C[C@H]1C(=O)N[C@@H](Cc1cnc[nH]1)C(=O)N[C@@H](CCCCN)C(=O)N/C(=C\CCNC(=N)N)C(=O)N[C@@H](CCCCN)C(=O)NCCCCN [14.7] (H-K[Dab]AG[dOrn][Pro(trans-4-F)]HK[ΔZArg]K-{NH(CH2)4NH2})

RESULT:
1. − (>32 μg/mL)
2. + (≤32 μg/mL)
3. − (>32 μg/mL)
4. ++ (≤8 μg/mL)
5. ++ (≤8 μg/mL)
6. − (>32 μg/mL)

QUERY: Fill blank: measured Ec: MIC Escherichia coli ATCC 25922 of the compound C[C@H](NC(=O)[C@@H](NC(=O)[C@@H](N)CCCCN)[C@@H](O)CN)C(=O)NCC(=O)N[C@H](CCCN)C(=O)N1CCC[C@H]1C(=O)N[C@@H](Cc1ccccc1C(N)=O)C(=O)N[C@@H](CCCCN)C(=O)N/C(=C\CCNC(=N)N)C(=O)O [24.82] (H-K[Dab(3S-OH)]AG[dOrn]P[Phe(2-CONH2)]K[ΔZArg]-OH) is ____.
RESULT: − (>32 μg/mL)

###

- Test system: Escherichia coli ATCC 25922
- PROTOCOL DETAILS: MIC, broth microdilution (CLSI), reference strain
- CONDITION SET: CAMHB
Square brackets hold non-standard residues; d marks the D form. Peptide text beside a SMILES is read from it. * marks the point of attachment. Pro(trans-4-F) = O=C(O)[C@@H]1C[C@@H](F)CN1; Dab(3S-OH) = NC[C@H](O)[C@H](N)C(=O)O; ΔZArg = N=C(N)NCC/C=C(\N)C(=O)O; dOrn = NCCC[C@@H](N)C(=O)O; Pra = C#CC[C@H](N)C(=O)O; NH(CH2)4NH2 = NCCCCN*
ENDPOINT: Ec: MIC Escherichia coli ATCC 25922

C#CC[C@H](NC(=O)[C@@H]1CCCN1C(=O)[C@@H](CCCN)NC(=O)CNC(=O)[C@H](C)NC(=O)[C@@H](NC(=O)[C@@H](N)CCCCN)[C@@H](O)CN)C(=O)N[C@@H](CCCCN)C(=O)N/C(=C\CCNC(=N)N)C(=O)N[C@@H](CCCCN)C(=O)NCCCCN [24.67] (H-K[Dab(3S-OH)]AG[dOrn]P[Pra]K[ΔZArg]K-{NH(CH2)4NH2}); ++ (≤8 μg/mL)
C[C@H](NC(=O)[C@@H](NC(=O)[C@@H](N)CCCCN)[C@@H](O)CN)C(=O)NCC(=O)N[C@H](CCCN)C(=O)N1C[C@H](F)C[C@H]1C(=O)N[C@@H](Cc1cnc[nH]1)C(=O)N[C@@H](CCCCN)C(=O)N/C(=C\CCNC(=N)N)C(=O)N[C@@H](CCCCN)C(=O)NCCCCN [24.4] (H-K[Dab(3S-OH)]AG[dOrn][Pro(trans-4-F)]HK[ΔZArg]K-{NH(CH2)4NH2}); ++ (≤8 μg/mL)
COc1ccc(C[C@H](NC(=O)[C@@H]2CCCN2C(=O)[C@@H](CCCN)NC(=O)CNC(=O)[C@H](C)NC(=O)[C@@H](NC(=O)[C@@H](N)CCCCN)[C@@H](O)CN)C(=O)N[C@@H](CCCCN)C(=O)N/C(=C\CCNC(=N)N)C(=O)O)cc1 [24.154] (H-K[Dab(3S-OH)]AG[dOrn]PY(Me)K[ΔZArg]-OH); ++ (≤8 μg/mL)
